# Read-out: Pro-epidermal growth factor (Homo sapiens)
# Measurement Description: LTEA_HepaRG_EGF: Life Technologies and Expression Analysis (LTEA) Assay for Epidermal growth factor (EGF) using HepaRG (AID 2283489)
# Assay Setup: mRNA level, 48 h; actives raise or lower the signal
Active and inactive are the calls of the source. The calls were made as follows: active = hit-call score of the fitted dose curve at least 0.9, where 1 is the maximum; inactive = score below 0.9.
Quantity: outcome

Ask | Could you tell me which outcome is on file for `Nc1cc2c3c(c1)C(c1ccccc1)=N[C@@H](NC(=O)c1cccnc1)C(=O)N3CC2` ?
Reply | inactive

Ask | Could you tell me which outcome is on file for `CCC(C)(C)c1ccc(O)cc1` ?
Reply | inactive

Ask | Could you tell me which outcome is on file for `CCOS(=O)(=O)OCC` ?
Reply | inactive

---

# System: Estrogen receptor (Homo sapiens) + Estrogen receptor beta (Homo sapiens) (UniProt P03372+Q92731)
# Sequence (P03372 whole entry, looked up): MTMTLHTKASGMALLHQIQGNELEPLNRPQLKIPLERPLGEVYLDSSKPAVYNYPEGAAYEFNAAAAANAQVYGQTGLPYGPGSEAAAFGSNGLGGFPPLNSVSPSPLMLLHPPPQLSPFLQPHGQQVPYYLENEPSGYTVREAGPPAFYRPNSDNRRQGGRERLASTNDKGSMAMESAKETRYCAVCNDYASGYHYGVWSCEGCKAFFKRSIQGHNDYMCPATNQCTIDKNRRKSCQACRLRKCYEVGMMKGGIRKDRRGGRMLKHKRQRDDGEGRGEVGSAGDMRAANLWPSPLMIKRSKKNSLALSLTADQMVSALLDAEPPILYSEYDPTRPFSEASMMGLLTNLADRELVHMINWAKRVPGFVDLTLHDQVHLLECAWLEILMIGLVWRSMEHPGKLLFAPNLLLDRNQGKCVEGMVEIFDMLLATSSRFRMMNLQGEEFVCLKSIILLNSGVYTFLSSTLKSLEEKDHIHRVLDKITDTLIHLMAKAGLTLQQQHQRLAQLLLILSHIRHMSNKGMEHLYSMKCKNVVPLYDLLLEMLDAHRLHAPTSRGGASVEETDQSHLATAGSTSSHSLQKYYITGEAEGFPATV
# Sequence (Q92731 whole entry, looked up): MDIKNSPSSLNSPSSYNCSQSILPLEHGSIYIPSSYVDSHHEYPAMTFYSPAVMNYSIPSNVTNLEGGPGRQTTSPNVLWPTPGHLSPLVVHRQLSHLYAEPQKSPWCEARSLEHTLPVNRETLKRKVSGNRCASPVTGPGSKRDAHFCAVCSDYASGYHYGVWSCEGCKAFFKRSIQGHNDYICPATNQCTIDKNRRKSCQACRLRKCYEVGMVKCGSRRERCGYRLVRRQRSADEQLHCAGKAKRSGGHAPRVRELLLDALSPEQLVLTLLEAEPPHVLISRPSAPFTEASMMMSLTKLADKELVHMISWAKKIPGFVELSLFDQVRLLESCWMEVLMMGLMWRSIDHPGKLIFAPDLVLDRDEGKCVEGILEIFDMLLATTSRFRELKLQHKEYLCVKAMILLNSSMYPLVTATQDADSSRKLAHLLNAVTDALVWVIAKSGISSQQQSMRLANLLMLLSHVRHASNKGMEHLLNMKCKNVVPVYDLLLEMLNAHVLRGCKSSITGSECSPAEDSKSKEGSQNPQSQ
# Measurement Description: OT_ER_ERaERb_0480: Odyssey Thera (OT) 8-hour HEK293T Protein-Complementation Assay for Estrogen Receptor-alpha/-beta Heterodimer (AID 2283352)
# Protocol: OT_ER_ERaERb_0480 is a cell-based assay that uses HEK293T, a human kidney cell line, with measurements taken at 8 hours after chemical dosing in a 384-well plate.OT_ER_ERaERb_0480 is one of one assay component(s) measured or calculated from the OT_ER_ERaERb_0480 assay. […] This assay endpoint, OT_ER_ERaERb_0480, was analyzed in the positive analysis fitting direction relative to DMSO as the negative control and baseline of activity. […]
Inconclusive results are not listed. Activity calls are given as the source filed them. The calls were made as follows: active = hit-call score of the fitted dose curve at least 0.9, where 1 is the maximum; inconclusive = response in the unintended direction; inactive = score below 0.9.
API: response.call in active, inactive

Solved cases (5 shown):
Ask | Test call, this compound: `ClC(Cl)(Cl)c1ccccc1`
Reply | inactive

Ask | Test call, this compound: `CCOc1ccc(C(C)(C)COCc2cccc(Oc3ccccc3)c2)cc1`
Reply | inactive

Ask | Test call, this compound: `O=NN1CCCC1`
Reply | inactive

Ask | Test call, this compound: `O=P(Oc1ccccc1)(Oc1ccccc1)Oc1ccccc1`
Reply | active

Ask | Test call, this compound: `Cc1ccc(N)cc1N`
Reply | inactive

Next:
Ask | Test call, this compound: `CCCCN(CCCC)N=O`
Reply | inactive

Ask | Test call, this compound: `O=S(=O)(c1ccc(O)cc1)c1ccc(O)cc1`
Reply | active

Ask | Test call, this compound: `CCN(CC)c1ccccc1`
Reply | inactive

---

# Measurement Description: CCTE_Shafer_MEA_acute_interburst_interval_mean: CCTE's Neural Acute Assay for Mean Interburst Interval, Shafer Lab (AID 2284016);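 also: percent change of mean interburst interval versus each well's own pre-dose baseline; curves fitted for decrease in interburst interval relative to DMSO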
The source made the active and inactive calls. How the source made its calls: active means hit-call score of the fitted dose curve at least 0.9, where 1 is the maximum; inactive means score below 0.9.
API: response.call in active, inactive

Solved cases (10 shown):
Ask | Test call, this compound: `CC(C)(C)c1ccccc1OP(=O)(Oc1ccccc1)Oc1ccccc1`
Reply | inactive

Ask | Test call, this compound: CCC1(c2ccccc2)C(=O)N=C(O)NC1=O (centres undefined)
Reply | inactive

Ask | Test call, this compound: `Nc1ccc2ccccc2c1`
Reply | inactive

Ask | Test call, this compound: `c1ccc2c(c1)Nc1ccccc1S2`
Reply | active

Ask | Test call, this compound: `COCCOCCO`
Reply | inactive

Ask | Test call, this compound: `CCOc1ccc(C(C)(C)COCc2cccc(Oc3ccccc3)c2)cc1`
Reply | active

Ask | Test call, this compound: ClC1=C(Cl)C2(Cl)C3C(Cl)C(Cl)CC3C1(Cl)C2(Cl)Cl (centres undefined)
Reply | inactive

Ask | Test call, this compound: `ClC(Cl)(Cl)c1ccccc1`
Reply | inactive

Ask | Test call, this compound: `Cc1ccc(N)cc1N`
Reply | inactive

Ask | Test call, this compound: `COP(=O)(CCC(=O)NCO)OC`
Reply | inactive

Next:
Ask | Test call, this compound: `[N-]=[N+]=[N-]`
Reply | inactive

Ask | Test call, this compound: CCOP(=S)(Oc1ccc([N+](=O)[O-])cc1)c1ccccc1 (centres undefined)
Reply | inactive

Ask | Test call, this compound: O=C(O)C1C(C(=O)O)C2(Cl)C(Cl)=C(Cl)C1(Cl)C2(Cl)Cl (centres undefined)
Reply | inactive

Ask | Test call, this compound: CCCCC(CC)COP(=O)(Oc1ccccc1)Oc1ccccc1 (centres undefined)
Reply | inactive

---

# Read-out: Keratin 19 (KRT19), KRT19 (gene 3880)
# Measurement Description: LTEA_HepaRG_KRT19: Life Technologies and Expression Analysis (LTEA) Assay for Keratin 19 (KRT19) using HepaRG (AID 2283512)
# Assay Setup: mRNA level, 48 h; actives raise or lower the signal
The source made the active and inactive calls. Rule for the calls: active = hit-call score of the fitted dose curve at least 0.9, where 1 is the maximum; inactive = score below 0.9.
API: response.call in active, inactive

Ask | Test call, this molecule: `CCOC(=O)c1ccccc1C(=O)OCC`
Reply | inactive

Ask | Test call, this molecule: `c1ccc(OP(Oc2ccccc2)Oc2ccccc2)cc1`
Reply | inactive

Ask | Test call, this molecule: OCC1CO1 (configuration not stated)
Reply | inactive

Ask | Test call, this molecule: CC(Cc1ccc(OCC(=O)O)cc1)NCC(O)c1csc(C(F)(F)F)n1 (configuration not stated)
Reply | active

Ask | Test call, this molecule: `CC(C)(C)OOC(C)(C)C`
Reply | inactive

Ask | Test call, this molecule: `CCOP(=S)(OCC)SCSCC`
Reply | inactive

Ask | Test call, this molecule: `Nc1cc2c3c(c1)C(c1ccccc1)=N[C@@H](NC(=O)c1cccnc1)C(=O)N3CC2`
Reply | inactive

Ask | Test call, this molecule: CCOP(=S)(Oc1ccc([N+](=O)[O-])cc1)c1ccccc1 (configuration not stated)
Reply | active

Ask | Test call, this molecule: ClC1=C(Cl)C2(Cl)C3C(Cl)C(Cl)CC3C1(Cl)C2(Cl)Cl (configuration not stated)
Reply | inactive

Ask | Test call, this molecule: `Cc1ccc(N)cc1N`
Reply | inactive

Ask | Test call, this molecule: `CC(Cl)(Cl)C(=O)O`
Reply | inactive

Ask | Test call, this molecule: `Cc1ccc(O)cc1C`
Reply | inactive

Ask | Test call, this molecule: `CC(C)(C)c1ccc(O)cc1`
Reply | inactive

Ask | Test call, this molecule: `CCC(C)(C)c1ccc(O)cc1`
Reply | inactive

Ask | Test call, this molecule: `CCOS(=O)(=O)OCC`
Reply | inactive

Ask | Test call, this molecule: `ClC(Cl)(Cl)c1ccccc1`
Reply | inactive

---

# Read-out: Human Leukocyte Antigen - DR isotype (HLADR), HLA-DRA (gene 3122)
# Measurement Description: BSK_BE3C_HLADR: BioMAP Diversity Plus: BE3C Assay for Human Leukocyte Antigen - DR isotype (HLADR) Biomarker Activity (AID 2283032)
# Assay Setup: primary human bronchial epithelial cells; actives raise or lower the signal
Activity calls are given as the source filed them. How the source made its calls: active means hit-call score of the fitted dose curve at least 0.9, where 1 is the maximum; inactive means score below 0.9.
API: response.call in True (active), False (inactive)

Solved cases (10 shown):
Ask | Test call, this compound: `COP(=O)(CCC(=O)NCO)OC`
Reply | False

Ask | Test call, this compound: `Cc1cccc(N)c1`
Reply | False

Ask | Test call, this compound: CCOP(=S)(Oc1ccc([N+](=O)[O-])cc1)c1ccccc1 (configuration not stated)
Reply | False

Ask | Test call, this compound: `COCCOCCO`
Reply | False

Ask | Test call, this compound: `CN(C)C(=O)Cl`
Reply | False

Ask | Test call, this compound: `Cc1ccc2c(c1N)C(=O)c1ccccc1C2=O`
Reply | True

Ask | Test call, this compound: `OCC(F)(F)OC(F)(F)C(F)(F)OC(F)(F)C(F)(F)OC(F)(F)F`
Reply | False

Ask | Test call, this compound: O=S1(=O)OCC2C(CO1)C1(Cl)C(Cl)=C(Cl)C2(Cl)C1(Cl)Cl (configuration not stated)
Reply | False

Ask | Test call, this compound: `O=C(O)C=CC(F)(C(F)(F)F)C(F)(F)F`
Reply | False

Ask | Test call, this compound: `c1ccc2c(c1)Nc1ccccc1S2`
Reply | False

Next:
Ask | Test call, this compound: `CCOS(=O)(=O)OCC`
Reply | False

Ask | Test call, this compound: `CC(C)(C)c1ccc(O)cc1`
Reply | False

---

# Measurement Description: CCTE_Shafer_MEA_dev_mutual_information_norm: CCTE's Neural Network Formation Assay for Mutual Information Normalization, Shafer Lab (AID 2284091)
# Experimental: CCTE_Shafer_MEA_dev assay is conducted using Axion Biosystems 48 well microelectrode array (MEA) plates and Maestro recording system. Each well of the MEA plate contains a grid of 16 microelectrodes embedded in the culture surface. Electrically active cells, such as neurons, can be cultured over the electrodes, and electrical activity in these cells can be recorded extracellularly. […]
The source made the active and inactive calls. How the source made its calls: active means hit-call score of the fitted dose curve at least 0.9, where 1 is the maximum; inactive means score below 0.9.
API: response.call in True = active, False = inactive

Solved cases (6 shown):
Ask | Test call, this compound: `O=S(=O)(c1ccc(O)cc1)c1ccc(O)cc1`
Reply | False

Ask | Test call, this compound: `OCC(F)(F)OC(F)(F)C(F)(F)OC(F)(F)C(F)(F)OC(F)(F)F`
Reply | False

Ask | Test call, this compound: CCCCC(CC)COP(=O)(Oc1ccccc1)Oc1ccccc1 (stereo not drawn)
Reply | False

Ask | Test call, this compound: `c1ccc(OP(Oc2ccccc2)Oc2ccccc2)cc1`
Reply | False

Ask | Test call, this compound: `CC(C)(C)c1ccccc1OP(=O)(Oc1ccccc1)Oc1ccccc1`
Reply | False

Ask | Test call, this compound: O=P1(N(CCCl)CCCl)NCCCO1 (stereo not drawn)
Reply | False

Next:
Ask | Test call, this compound: CCCCC(CC)COC(=O)c1c(Br)c(Br)c(Br)c(Br)c1C(=O)OCC(CC)CCCC (stereo not drawn)
Reply | False

Ask | Test call, this compound: `O=C(O)C(F)(F)C(F)(F)C(=O)O`
Reply | False

Ask | Test call, this compound: `O=C(O)C(F)(F)OC(F)(F)C(F)(F)OC(F)(F)F`
Reply | False

Ask | Test call, this compound: `CO/N=C(/C(=O)OC)c1ccccc1COc1ccccc1C`
Reply | True

Ask | Test call, this compound: CCC1(c2ccccc2)C(=O)N=C(O)NC1=O (stereo not drawn)
Reply | False

Ask | Test call, this compound: `CCOc1ccc(C(C)(C)COCc2cccc(Oc3ccccc3)c2)cc1`
Reply | True

Ask | Test call, this compound: `OCC(F)(F)OC(F)(F)C(F)(F)OC(F)(F)CO`
Reply | False
